- tested-on: human glucagon receptor (human) (UniProt P47871)
- Sequence (P47871 26-477): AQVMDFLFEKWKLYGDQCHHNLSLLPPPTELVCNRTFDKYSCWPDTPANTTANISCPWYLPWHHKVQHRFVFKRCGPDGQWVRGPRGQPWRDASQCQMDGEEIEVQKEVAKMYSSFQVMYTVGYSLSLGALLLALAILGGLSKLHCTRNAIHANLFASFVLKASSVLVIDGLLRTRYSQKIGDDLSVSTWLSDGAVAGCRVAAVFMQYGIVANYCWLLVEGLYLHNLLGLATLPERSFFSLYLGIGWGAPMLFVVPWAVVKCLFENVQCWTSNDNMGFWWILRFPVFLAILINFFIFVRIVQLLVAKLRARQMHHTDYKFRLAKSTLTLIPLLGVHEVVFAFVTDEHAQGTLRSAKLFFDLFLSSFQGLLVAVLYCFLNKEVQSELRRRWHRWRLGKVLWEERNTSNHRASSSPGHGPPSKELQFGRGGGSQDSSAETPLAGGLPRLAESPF
- method-description: cell-based or functional assay
Starred links: 1 amine or outer side, 2 acyl side, 3 side chain; linkers in the order of their positions; H or OH if unused. Non-standard residues stand in square brackets, D forms with d. Groups on a side chain read outwards from the residue. No end group written: not given here. *: point of attachment. C20 diacid = O=C(O)CCCCCCCCCCCCCCCCCCC(=O)*; γGlu = O=C(O)[C@H](CCC(=O)[*:2])N[*:1]; αMeL = CC(C)C[C@](C)(N)C(=O)O; AEEA = NCCOCCOCC(=O)O; Aib = CC(C)(N)C(=O)O
metric-name: cAMP Rel EC50 (1% HSA)
Report the figure along with its unit, number first.

Look over these answered cases.
binder: YXQGTFTSDXSQXLDXKAQXAFIQXLIEXGPSSGEPPPSGGGE (not fully specified; non-natural residues, C18 diacid acylation, C-terminal amide; synthetic construct; SITE 2: note = 2-Aminoisobutyric Acid; SITE 10: note = 3-(4-Pyridyl)-L-alanine; SITE 13: note = alpha-methyl-leucine; SITE 16: note = L-ornithine; SITE 17: note = Lysine is chemically modified through conjugation of the epsilon-amino group of the Lysine side chain with D-Glutami) [Example 1131]
cAMP Rel EC50 (1% HSA): 1140 nM

binder: Y[Aib]QGTFTSDYSI[αMeL]LDKIAAK([AEEA-AEEA-γGlu-C20 diacid])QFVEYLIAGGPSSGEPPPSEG-NH2 [Example 312]
cAMP Rel EC50 (1% HSA): 4070 nM

binder: YXQGTXTSDXSILLDKKAQXAFIEYLEEGGPSSGAPPPEGTGE (synthetic construct; SITE 2: note = 2-Aminoisobutyric Acid; SITE 6: note = alpha-methyl-2-fluoro-L-phenylalanine; SITE 10: note = 3-(4-Pyridyl)-L-alanine; SITE 17: note = Lysine is chemically modified through conjugation of the epsilon-amino group of the Lysine side chain with (gamma-Glu)2-CO-(CH2)1) [Example 660]
cAMP Rel EC50 (1% HSA): 455 nM

binder: YXQGTXTSDXXIXLDXKAAXEFIEXLIEGGPSSGEPPPSGGGE (synthetic construct; SITE 2: note = 2-Aminoisobutyric Acid; SITE 6: note = alpha-methyl-2-fluoro-L-phenylalanine; SITE 10: note = 3-(4-Pyridyl)-L-alanine; SITE 11: note = alpha-methyl-L-serine; SITE 13: note = alpha-methyl-leucine; SITE 16: note = L-ornithine; SITE 17: note = Lysine is chemically mo) [Example 746]
cAMP Rel EC50 (1% HSA): 255 nM

Input YXQGTXTSDXXIXLDXKAQXEFIQXLIEGGPSSGAPPPSGS (synthetic construct; SITE 2: note = 2-Aminoisobutyric Acid; SITE 6: note = alpha-methyl-2-fluoro-L-phenylalanine; SITE 10: note = 3-(4-Pyridyl)-L-alanine; SITE 11: note = alpha-methyl-L-serine; SITE 13: note = alpha-methyl-leucine; SITE 16: note = L-ornithine; SITE 17: note = Lysine is chemically mo) [Example 1202] . Output cAMP Rel EC50 (1% HSA): 70.3 nM

Input YXQATXTSDXXIXLDXKAQXEFIEXLVEGGPSSGAPPPSGS (synthetic construct; SITE 2: note = 2-Aminoisobutyric Acid; SITE 4: note = D-amino acid; SITE 6: note = alpha-methyl-2-fluoro-L-phenylalanine; SITE 10: note = 3-(4-Pyridyl)-L-alanine; SITE 11: note = alpha-methyl-L-serine; SITE 13: note = alpha-methyl-leucine; SITE 16: note = L-ornithine; SITE 17: n) [Example 1204] . Output cAMP Rel EC50 (1% HSA): 507 nM
